molecular target: CaBem1-D1; experiment: SPOT peptide array binding signal intensity (averaged, normalized) (arbitrary units (background-subtracted, floor 0; scale differs between SH3 domains)); higher = stronger binding of the SH3 domain to the peptide
property: SPOT peptide array binding signal intensity
Form field (numeric): enter value without unit.

[[record]]
binder = "PSRRDSLSIPRAVDA"
recorded_number = 4

[[record]]
binder = "GQYRRTIVIPRRFFT"
recorded_number = 24.5

[[record]]
binder = "LKRITSPPLPPRADS"
recorded_number = 24.5

[[record]]
binder = "KRRAPPPVPKKPSSR"
recorded_number = 95


With those in mind, consider the next binder.
Given PPIPNAPLSPAPAVP , state its recorded SPOT peptide array binding signal intensity. 7
